Reference source for all entries: ChEMBL document CHEMBL1914420

- measurement-description: Selectivity ratio of IC50 for PDE11 to IC50 for PDE5
measured-endpoint: Ratio IC50

a = CCCOCCn1c(=O)nc(N[C@@H]2CCCC[C@@H]2C(=O)O)c2nnc(-c3ccc(OC)nc3)cc21 (racemic)
b = CCCOCCn1c(=O)nc(NCCOC(C)C)c2cnc(-c3ccc(OC)nc3)cc21
c = CCCOCCn1c(=O)c(N2CCN(CCO)CC2)nc2ncc(-c3ccc(OC)nc3)cc21
Please list these compounds in decreasing order of Ratio IC50. Give the labels in the order specified. b, c, a

---

- assay-target: Dual specificity calcium/calmodulin-dependent 3',5'-cyclic nucleotide phosphodiesterase 1A (Homo sapiens)
- Sequence (P54750 whole entry): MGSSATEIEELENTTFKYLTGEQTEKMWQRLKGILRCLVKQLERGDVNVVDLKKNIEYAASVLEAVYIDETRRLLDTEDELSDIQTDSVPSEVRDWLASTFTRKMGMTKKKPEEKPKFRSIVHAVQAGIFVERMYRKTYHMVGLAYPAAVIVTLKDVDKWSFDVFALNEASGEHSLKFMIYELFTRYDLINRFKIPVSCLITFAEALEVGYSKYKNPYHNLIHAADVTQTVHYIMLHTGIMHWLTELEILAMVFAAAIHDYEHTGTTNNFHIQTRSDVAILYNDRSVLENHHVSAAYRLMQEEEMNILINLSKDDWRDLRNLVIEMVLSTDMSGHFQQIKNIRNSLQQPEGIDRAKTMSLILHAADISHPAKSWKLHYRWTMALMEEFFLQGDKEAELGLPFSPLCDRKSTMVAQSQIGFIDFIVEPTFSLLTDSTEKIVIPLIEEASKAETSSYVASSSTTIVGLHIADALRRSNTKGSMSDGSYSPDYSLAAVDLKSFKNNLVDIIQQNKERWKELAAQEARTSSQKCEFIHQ
- measurement-description: Inhibition of PDE1A
measured-endpoint: IC50

Lab note: measured IC50 of CCCOCCn1c(=O)nc(NC2CCC(O)CC2)c2nnc(-c3ccc(OC)nc3)cc21 (stereo unspecified) was > 2000 nM

---

- assay-target: cGMP-specific 3',5'-cyclic phosphodiesterase (Homo sapiens)
measured-endpoint: IC50 (nM)

Check out these entries, answers already filled in.
[[record]]
compound = "CCCOCCn1c(=O)nc(N2CCCC(C(=O)O)C2)c2nnc(-c3ccc(OC)nc3)cc21 (stereo unspecified)"
measured_endpoint = "IC50"
recorded_value = 0.06

[[record]]
compound = "CCCOCCn1c(=O)nc(N2CCC(CC(=O)O)CC2)c2nnc(-c3ccc(OC)nc3)cc21"
measured_endpoint = "IC50"
recorded_value = 0.04

[[record]]
compound = "CCCOCCn1c(=O)nc(NC2CCC(O)CC2)c2cnc(-c3ccc(OC)nc3)cc21 (stereo unspecified)"
measured_endpoint = "IC50"
recorded_value = 0.05

[[record]]
compound = "CCCOCCn1c(=O)nc(NC2CCC(O)CC2)c2nnc(-c3ccc(OC)nc3)cc21 (stereo unspecified)"
measured_endpoint = "IC50"
recorded_value = 0.02

[[record]]
compound = "CCCOCCn1c(=O)nc(N2CCC(C(=O)O)CC2)c2nnc(-c3ccc(OC)nc3)cc21"
measured_endpoint = "IC50"
recorded_value = 0.01

[[record]]
compound = "CCCOCCn1c(=O)nc(N[C@@H]2CCCC[C@H]2C(=O)O)c2nnc(-c3ccc(OC)nc3)cc21 (racemic)"
measured_endpoint = "IC50"
recorded_value = 0.27

[[record]]
compound = "CCOCCn1c(=O)nc(NC2CCC(O)CC2)c2nnc(-c3ccc(OC)nc3)cc21 (stereo unspecified)"
measured_endpoint = "IC50"
recorded_value = 0.36

[[record]]
compound = "CCCOCCn1c(=O)nc(NC(C)(C)C(=O)O)c2nnc(-c3ccc(OC)nc3)cc21"
measured_endpoint = "IC50"
recorded_value = 0.05


A = COc1ccc(-c2cc3c(nn2)c(N2CCN(CCO)CC2)nc(=O)n3CCOCC(F)(F)F)cn1
B = CCCOCCn1c(=O)nc(NCCC(=O)O)c2nnc(-c3ccc(OC)nc3)cc21
C = CCCOCCn1c(=O)nc(N[C@H](C)C(=O)O)c2nnc(-c3ccc(OC)nc3)cc21
D = COc1ccc(-c2cc3c(nn2)c(NCC(=O)N(C)C)nc(=O)n3CCOCC(F)(F)F)cn1
E = CCCOCCn1c(=O)nc(N2CCN(CCO)CC2)c2nnc(-c3ccc(OC)nc3)cc21
Arrange by IC50, high to low. Order the labels as requested and list them. E, A, D, C, B
(E: 1.3 nM, A: 0.64 nM, D: 0.38 nM, C: 0.13 nM, B: 0.05 nM)
